Test system: Staphylococcus epidermidis
Assay Explanation: Antibacterial activity against Staphylococcus epidermidis assessed as inhibition of visible bacterial growth incubated for 18 to 20 hrs by microbroth dilution method
Type: functional
Setup Conditions: time 18-20 hrs
Recorded Metric: log10 MIC (log10 of the value in µg/mL)
Quick note: numbers are log10 of MIC, with µg/mL as the unit.

Recorded results for 2 compounds are shown here.
log10 MIC recorded for this compound, CC(=O)OC[C@H]1O[C@@H](NC(=S)Nc2nc(-c3ccc(C)cc3)cs2)[C@H](OC(C)=O)[C@@H](OC(C)=O)[C@@H]1OC(C)=O , is 2.60

Value of measured log10 MIC for the entry COc1ccc(-c2csc(NC(=S)N[C@@H]3O[C@H](COC(C)=O)[C@@H](OC(C)=O)[C@H](OC(C)=O)[C@H]3OC(C)=O)n2)cc1 : 2.00

Please state log10 MIC for every compound in the list that follows.
1. COc1ccc(-c2csc(NC(=S)N[C@@H]3O[C@H](COC(C)=O)[C@@H](OC(C)=O)[C@H](OC(C)=O)[C@H]3OC(C)=O)n2)cc1[N+](=O)[O-]
2. CCc1ccc(-c2csc(NC(=S)N[C@@H]3O[C@H](COC(C)=O)[C@@H](OC(C)=O)[C@H](OC(C)=O)[C@H]3OC(C)=O)n2)cc1
3. CN[C@H](CC(C)C)C(=O)N[C@H]1C(=O)N[C@@H](CC(N)=O)C(=O)N[C@H]2C(=O)N[C@H]3C(=O)N[C@H](C(=O)N[C@H](C(=O)O)c4cc(O)cc(O)c4-c4cc3ccc4O)[C@H](O)c3ccc(c(Cl)c3)Oc3cc2cc(c3O[C@@H]2O[C@H](CO)[C@@H](O)[C@H](O)[C@H]2O[C@H]2C[C@](C)(N)[C@H](O)[C@H](C)O2)Oc2ccc(cc2Cl)[C@H]1O

Result ::
[1.70, 0.80, -0.11]

The compound listed as CC(=O)OC[C@H]1O[C@@H](NC(=S)Nc2nc(-c3ccccc3)cs2)[C@H](OC(C)=O)[C@@H](OC(C)=O)[C@@H]1OC(C)=O has a reported log10 MIC of -0.11

----------
Tested on: Saccharomyces cerevisiae
Assay Explanation: Antifungal activity against Saccharomyces cerevisiae assessed as inhibition of fungal growth incubated for 72 hrs by agar dilution method
Format: functional
Task for the reader: assign each of the following molecules its reported MIC.
Answers are plain numbers, in µg/mL.

Given item CC(=O)OC[C@H]1O[C@@H](NC(=S)Nc2nc(-c3ccc(C)cc3)cs2)[C@H](OC(C)=O)[C@@H](OC(C)=O)[C@@H]1OC(C)=O , the value recorded as its MIC is 0.78

Please go through the list and note MIC for each molecule.
1. Clc1ccc(COC(Cn2ccnc2)c2ccc(Cl)cc2Cl)c(Cl)c1 (stereo not drawn) [MICONAZOLE]
2. CCc1ccc(-c2csc(NC(=S)N[C@@H]3O[C@H](COC(C)=O)[C@@H](OC(C)=O)[C@H](OC(C)=O)[C@H]3OC(C)=O)n2)cc1

Result ::
[3.12, 400]

----------
Target Entity: Topoisomerase IV (Staphylococcus aureus, UniProt P0C1S7+P0C1U9)
Sequence (P0C1U9 whole entry): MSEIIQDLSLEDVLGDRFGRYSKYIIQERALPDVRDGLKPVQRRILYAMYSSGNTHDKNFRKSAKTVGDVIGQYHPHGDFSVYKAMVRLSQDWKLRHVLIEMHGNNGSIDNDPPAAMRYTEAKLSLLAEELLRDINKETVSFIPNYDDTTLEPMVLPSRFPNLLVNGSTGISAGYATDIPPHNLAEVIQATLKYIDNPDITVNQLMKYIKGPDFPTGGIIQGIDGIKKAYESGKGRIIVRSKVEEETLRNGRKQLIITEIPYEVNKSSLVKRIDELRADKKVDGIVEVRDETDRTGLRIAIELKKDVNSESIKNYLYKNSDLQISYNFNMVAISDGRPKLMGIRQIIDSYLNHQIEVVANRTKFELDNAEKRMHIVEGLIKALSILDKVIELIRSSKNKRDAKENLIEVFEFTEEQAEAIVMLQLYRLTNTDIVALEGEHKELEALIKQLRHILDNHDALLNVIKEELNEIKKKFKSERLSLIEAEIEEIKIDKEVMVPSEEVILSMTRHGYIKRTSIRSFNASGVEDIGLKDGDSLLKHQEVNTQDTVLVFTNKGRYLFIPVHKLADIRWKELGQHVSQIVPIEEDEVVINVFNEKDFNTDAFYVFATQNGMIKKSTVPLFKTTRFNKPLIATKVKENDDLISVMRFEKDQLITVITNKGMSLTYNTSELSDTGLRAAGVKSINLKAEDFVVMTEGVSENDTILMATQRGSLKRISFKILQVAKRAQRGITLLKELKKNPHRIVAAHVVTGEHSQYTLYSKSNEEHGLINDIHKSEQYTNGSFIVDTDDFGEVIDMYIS
Sequence (P0C1S7 whole entry): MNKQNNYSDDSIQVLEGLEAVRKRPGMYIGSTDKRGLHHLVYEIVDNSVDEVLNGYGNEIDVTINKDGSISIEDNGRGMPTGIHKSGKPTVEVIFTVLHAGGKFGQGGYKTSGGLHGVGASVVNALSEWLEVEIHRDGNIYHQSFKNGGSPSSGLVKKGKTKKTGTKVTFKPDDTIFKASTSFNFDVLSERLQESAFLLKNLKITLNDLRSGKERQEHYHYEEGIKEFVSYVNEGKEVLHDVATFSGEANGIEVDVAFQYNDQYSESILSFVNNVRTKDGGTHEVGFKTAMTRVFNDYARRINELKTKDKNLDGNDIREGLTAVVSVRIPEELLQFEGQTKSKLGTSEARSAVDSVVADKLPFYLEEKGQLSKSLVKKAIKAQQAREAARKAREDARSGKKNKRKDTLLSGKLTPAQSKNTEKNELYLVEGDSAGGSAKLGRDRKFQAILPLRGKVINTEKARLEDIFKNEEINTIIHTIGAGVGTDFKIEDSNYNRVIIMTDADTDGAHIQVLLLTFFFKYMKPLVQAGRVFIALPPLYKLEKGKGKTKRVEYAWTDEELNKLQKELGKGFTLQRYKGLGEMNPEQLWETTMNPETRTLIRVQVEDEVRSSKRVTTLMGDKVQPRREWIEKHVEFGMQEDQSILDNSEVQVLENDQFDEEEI
Assay Explanation: Inhibition of Staphylococcus aureus DNA topoisomerase 4 using supercoiled plasmid DNA as substrate
Recorded Metric: pIC50
One number for each entry, as −log10 of the molar value.

// for each compound below, give its pIC50
1. COc1ccc(-c2csc(NC(=S)N[C@@H]3O[C@H](COC(C)=O)[C@@H](OC(C)=O)[C@H](OC(C)=O)[C@H]3OC(C)=O)n2)cc1[N+](=O)[O-]
2. COc1ccc(-c2csc(NC(=S)N[C@@H]3O[C@H](COC(C)=O)[C@@H](OC(C)=O)[C@H](OC(C)=O)[C@H]3OC(C)=O)n2)cc1
3. CC(=O)OC[C@H]1O[C@@H](NC(=S)Nc2nc(-c3ccc(Cl)cc3)cs2)[C@H](OC(C)=O)[C@@H](OC(C)=O)[C@@H]1OC(C)=O

Result ::
[4.17, 4.10, 4.16]
